targetOfAssay: native H3 receptors from rat cerebral cortices (Rattus norvegicus (Rat), UniProt Q9QYN8)
Sequence (Q9QYN8 whole entry): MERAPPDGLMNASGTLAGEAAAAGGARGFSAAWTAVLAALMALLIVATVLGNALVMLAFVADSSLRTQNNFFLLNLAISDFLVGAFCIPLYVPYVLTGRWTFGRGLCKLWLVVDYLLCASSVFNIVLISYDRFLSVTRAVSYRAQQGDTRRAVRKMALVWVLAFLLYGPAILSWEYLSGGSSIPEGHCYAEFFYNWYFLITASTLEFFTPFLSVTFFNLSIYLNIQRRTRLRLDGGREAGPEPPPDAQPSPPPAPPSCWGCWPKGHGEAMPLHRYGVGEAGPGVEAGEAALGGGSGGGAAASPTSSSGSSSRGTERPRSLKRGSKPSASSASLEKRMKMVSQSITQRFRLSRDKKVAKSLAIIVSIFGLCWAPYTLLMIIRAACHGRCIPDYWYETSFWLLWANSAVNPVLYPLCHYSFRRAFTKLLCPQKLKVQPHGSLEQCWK
experimentalEndpoint: Ki
Number plus unit, in that order.

Please look at CC1=C(c2ccc(OCCCN3CCCCC3)cc2)SC2=NCc3ccccc3CN21 and tell me its recorded Ki on native H3 receptors from rat cerebral cortices (Rattus norvegicus (Rat), UniProt Q9QYN8). 0.05 nM
